System: SK-MEL-28
Assay: NCI tumour cell line growth inhibition, 48 h
Calls of active or inactive are those of the source. Rule as the data show it: active = GI50 up to about 1.1 µM and inactive = higher.
EXPERIMENTAL READOUT: GI50

Check out these entries, answers already filled in.
| COMPOUND | GI50 |
| --- | --- |
| Cc1cn(CCCCOC(=O)NC(CCCNC(N)=O)C(=O)O)c(=O)[nH]c1=O (centres undefined) | > 100 µM (inactive) |
| Cc1nn(-c2ccccn2)c2c1C(SC#N)=C(C=O)CC2 | 21.2 µM (inactive) |
| O=C(O)C12CCC(CC1=O)C2 (centres undefined) | > 100 µM (inactive) |

Turning to the following compound.
Please give the measured GI50 for this compound: Cc1ccc(/C=C(\C#N)c2ccccc2)cc1
> 100 µM (inactive)

====

Tested on: XF498
Assay: NCI tumour cell line growth inhibition, 48 h
The source made the active and inactive calls. Cut-off read from the data, not from the text of the source: active = GI50 up to about 1.1 µM and inactive = higher.
EXPERIMENTAL READOUT: GI50

Check out these entries, answers already filled in.
| COMPOUND | EXPERIMENTAL READOUT | REPORTED MEASUREMENT |
| --- | --- | --- |
| CCCOP1(=O)C=CC(Cl)=C(C)C1 (stereo not given) | GI50 | 23.6 µM (inactive) |
| O=c1ncc(F)cn1C1OC(CO)C(O)C1O (stereo not given) | GI50 | > 100 µM (inactive) |
| CCOC(=O)N[C@@H]1C(CC(=O)OC)O[C@H]2OC(C)(C)O[C@H]21 (stereo not given in full) | GI50 | > 100 µM (inactive) |

Please give the measured GI50 for this compound: Cc1ccc(NC(=O)CCc2nnc(N)o2)cc1
> 100 µM (inactive)

Repeat with C[N+](C)(C)CC1CCCC1=O (stereo not given)
1.87 µM (inactive)

Repeat with CCN(CC)c1ccc(C2N3CCCCC3[C@@H]3c4[nH]c5ccccc5c4CCN23)cc1 (stereo not given in full)
17.1 µM (inactive)

Repeat with COC(=O)/C(C#N)=C(\N)C(Cl)(Cl)Cl
1.78 µM (inactive)

Repeat with O=C1/C(=C/c2ccccc2)CN(C(=O)/C=C/c2ccccc2)C/C1=C\c1ccccc1
18.6 µM (inactive)

Repeat with COC1=CC(=O)C2C(C1=O)[C@@H]1c3ccccc3OC(C)(C)[C@H]21 (stereo not given in full)
18.1 µM (inactive)

Repeat with COc1ccc(OC)c(/C=C2\CCc3ccccc3C2=O)c1
1.24 µM (inactive)

====

System: OVCAR-4
Assay: NCI tumour cell line growth inhibition, 48 h
Active and inactive are the calls of the source. No stated cut-off is given here; in the data, active = GI50 up to about 1.1 µM and inactive = higher.
The reply should name one outcome from T for active, F for inactive

Solved cases below.
| MOLECULE | GROUP LABEL |
| --- | --- |
| O=C1C=CC(=O)c2c1cc([N+](=O)[O-])c1ccoc21 | F |
| Oc1cc(Br)cc2cc(Cl)cnc12 | T |
| NCCN1C(=O)CN=C(c2ccc(Cl)cc2)c2cc(Cl)ccc21 | F |
| O=C(SC1=NCCN1)c1cccc2ccccc12 | F |
| COC(=O)CNC(=O)CNC(=O)CSc1nnc(COc2ccc(Cl)cc2)n1-c1ccccc1 | F |

Short answer needed: outcome of this test for Cc1c(C(=O)c2ccccc2C(=O)O)c2ccccc2n1C ?
F

Repeat with O=c1c2c3c(sc2nc2n1sc1nc4sc5c(c4c(=O)n12)CCCC5)CCCC3
F

Repeat with Cc1cc2c(=O)c3ccc(Cl)cc3[nH]c2c(C(N)=O)c1C
F

Repeat with Cc1cn(CCCCOC(=O)NC(CCCNC(N)=O)C(=O)O)c(=O)[nH]c1=O (stereo unspecified)
F

Repeat with O=C(O)/C=C/n1c2ccccc2c(=O)c2ccccc21
F

Repeat with CCOC(=O)N[C@@H]1C(CC(=O)OC)O[C@H]2OC(C)(C)O[C@H]21 (stereo partly specified)
F
